Test system: Staphylococcus aureus ATCC 49951
assay remarks: MIC by broth microdilution (CLSI) against Staphylococcus aureus ATCC 49951
Format: cell-based
conditions: ATCC49951; Staphylococcus aureus ATCC 49951, in vitro; read-out: MIC
Structures can show the parent of a compound that is named as a salt.
measured quantity: MIC (mg/L)
Value expressed in mg/L; do not type the unit.

Solved entries (count: 2):
>>> readout_value("C[C@@H]1CC[C@@]23CCC(=O)[C@H]2[C@]1(C)[C@H](OC(=O)CSc1ccc(CN)cn1)C[C@](C)(CNCc1ccc(CN)c(F)c1)[C@@H](O)[C@@H]3C")
0.25
>>> readout_value("C[C@@H]1CC[C@@]23CCC(=O)C2[C@]1(C)[C@H](OC(=O)CSC1CCC(CNC(=O)CN)CC1)C[C@](C)(CCc1ccc(CNCCN)cc1)[C@@H](O)[C@@H]3C (some centres unmarked) [Example 152, trihydrochloride]")
0.25

For the next question, use this compound.
Can you look up the measured MIC of C[C@@H]1CC[C@@]23CCC(=O)[C@H]2[C@]1(C)[C@H](OC(=O)CSC1CCN(C(=O)CN)CC1)C[C@](C)(CNCc1ccc(OCCN)cc1)[C@@H](O)[C@@H]3C [Example 83, trihydrochloride] for me?
0.25

###

molecules and their reported MIC
Test system: Staphylococcus aureus ATCC 49951
assay remarks: MIC by broth microdilution (CLSI) against Staphylococcus aureus ATCC 49951
Assay type: cell-based
conditions: Staphylococcus aureus ATCC 49951, in vitro
Express your answer in µg/mL, writing the number without its unit.

Study these solved cases before continuing.
>>> readout_value("C[C@@H]1CC[C@@]23CCC(=O)[C@H]2[C@]1(C)[C@H](OC(=O)CSc1nnc(N)[nH]1)C[C@](C)(CNCCCCCCN)[C@@H](O)[C@@H]3C.Cl.Cl.Cl")
0.5
>>> readout_value("CC1C(O)C(C)(CNCc2ccc(CN)cc2)CC(OC(=O)CSCCO)C2(C)C(C)CCC13CCC(=O)C32.Cl.Cl (stereo not drawn)")
0.5
>>> readout_value("CC1C(O)C(C)(CNCc2ccc(CN)cc2)CC(OC(=O)CSCCN)C2(C)C(C)CCC13CCC(=O)C32.Cl.Cl.Cl (stereo not drawn)")
0.5

What value of measured MIC is listed for CC1C(O)C(C)(CNCCCCCCN)CC(OC(=O)CSc2ccncc2)C2(C)C(C)CCC13CCC(=O)C32.Cl.Cl.Cl (stereo not drawn) ?
0.25

Next entry: CC1C(O)C(C)(CNCCCCCCNC(=N)N)CC(OC(=O)CSC2CCCNCC2)C2(C)C(C)CCC13CCC(=O)C32.Cl.Cl.Cl (stereo not drawn)
0.06

Next entry: CC1C(O)C(C)(CNCc2cc(F)c(CN)cc2F)CC(OC(=O)CSc2ccc(CN)cn2)C2(C)C(C)CCC13CCC(=O)C32.Cl.Cl.Cl.Cl (stereo not drawn)
0.5

Queued: C=C[C@@]1(C)C[C@@H](OC(=O)CSc2nnc(N)[nH]2)[C@]2(C)[C@H](C)CC[C@]3(CCC(=O)[C@H]32)[C@@H](C)[C@@H]1O.Cl [Example C1, reference compound]
0.5

One more molecule: CC1C(O)C(C)(C=Cc2ccc(CNCCN)c(F)c2)CC(OC(=O)CSC2CCCNCC2)C2(C)C(C)CCC13CCC(=O)C32.Cl.Cl.Cl (stereo not drawn)
0.25

Another molecule to look at: C[C@@H]1CC[C@@]23CCC(=O)[C@H]2[C@]1(C)[C@H](OC(=O)CS[C@@H]1CC[C@@H](N)C[C@H]1O)C[C@](C)(CNCCCN)[C@@H](O)[C@@H]3C.Cl.Cl.Cl
0.25
